assay.target: HLA-DR DRB1*0301 (DR3) (Homo sapiens, UniProt P01903+P01911, A100K/A102G/A103R/A169T/F55Y/I96L/K41T/L162R/M171V/P40S/Q125H/Q178H/Q39Y/R42S/S66N/T106N/T262R/W38E/Y61H)
Sequence (P01903 26-254 limits assumed, other chains not shown): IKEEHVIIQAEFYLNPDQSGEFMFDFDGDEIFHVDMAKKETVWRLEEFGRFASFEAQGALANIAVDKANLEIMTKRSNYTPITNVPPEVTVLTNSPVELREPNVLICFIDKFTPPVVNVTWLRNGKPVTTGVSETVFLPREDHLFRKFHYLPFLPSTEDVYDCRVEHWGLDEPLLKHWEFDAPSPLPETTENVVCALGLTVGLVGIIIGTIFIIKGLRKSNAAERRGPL
experiment.description: biochemical
Assay type: binding
No end group written: not given here.
sequences and their reported IC50

The examples below pair each entry with its known result.
>>> print(df.to_string())
          residues  property  reported_measurement
0  WYRYSVYGTTLEKLT      IC50               26.6 µM
1  LHLLSNDMCARAYSE      IC50              0.938 µM
2  NSLVYGASDSNIYDL      IC50             > 51.4 µM

Next sequence, IC50 to be filled in.
Given LGFLQRSSNCQSQKL , state its recorded IC50.
4.89 µM

FYI, the data here is from patent US20060079453A1.
